Tested on: CASOB Sicklepod
Measurement Description: Postemergence herbicidal evaluation, CASOB
Type: in vivo, Cassia obtusifolia, L.
Set-up: scale not given here
Reported Conditions: 0.032 kg/ha, postemergence spray, rated about two-three weeks after treatment
Readout Type: Postemergence herbicidal rating CASOB

Guide cases for Postemergence herbicidal rating CASOB, answers given:
{"columns": ["Compound", "Postemergence herbicidal rating CASOB"],
 "data": [
  ["Cc1ccc(O)cc1-n1nnc2cc(F)c(-n3c(=O)cc(C(F)(F)F)n(C)c3=O)cc21", 0.0],
  ["COc1ccccc1-n1nnc2cc(F)c(-n3c(=O)cc(C(F)(F)F)n(C)c3=O)cc21", 6.0],
  ["COc1ccc(C)cc1-n1nnc2cc(F)c(-n3c(=O)cc(C(F)(F)F)n(C)c3=O)cc21", 6.0],
  ["COCc1ccccc1-n1nnc2cc(F)c(-n3c(=O)cc(C(F)(F)F)n(C)c3=O)cc21", 2.0],
  ["C=CCOc1ccc(C)cc1-n1nnc2cc(F)c(-n3c(=O)cc(C(F)(F)F)n(C)c3=O)cc21", 4.0],
  ["Cc1cc(O)ccc1-n1nnc2cc(F)c(-n3c(=O)cc(C(F)(F)F)n(C)c3=O)cc21", 0.0],
  ["COC(=O)C(C)Oc1ccc(C)cc1-n1nnc2cc(F)c(-n3c(=O)cc(C(F)(F)F)n(C)c3=O)cc21 (centres unmarked)", 4.0]
]}

Determine its reported Postemergence herbicidal rating CASOB: C#CCOC(=O)COc1ccc(C)c(-n2nnc3cc(F)c(-n4c(=O)cc(C(F)(F)F)n(C)c4=O)cc32)c1
0.0

====

Tested on: GLXMAW Soybean, Williams
Measurement Description: Preemergence herbicidal evaluation, GLXMAW
Format: in vivo, Glycine max, (L.) Merr. cv Williams
Set-up: scale not given here
Reported Conditions: preemergence, rate 0.032 kg/ha
Readout Type: GLXMAW herbicidal rating
API note: the answer field is a bare number with no unit suffix.

{"columns": ["Compound", "Test System", "Readout Type", "Reported Value"],
 "data": [
  ["COc1ccc(C)cc1-n1nnc2cc(F)c(-n3c(=O)cc(C(F)(F)F)n(C)c3=O)cc21 [Example 18]", "GLXMAW Soybean, Williams", "GLXMAW herbicidal rating", 4.5],
  ["C#CCOC(=O)COc1ccc(C)c(-n2nnc3cc(F)c(-n4c(=O)cc(C(F)(F)F)n(C)c4=O)cc32)c1 [Example 36]", "GLXMAW Soybean, Williams", "GLXMAW herbicidal rating", 0.0],
  ["Cc1ccc(-n2nnc3cc(F)c(-n4c(=O)cc(C(F)(F)F)n(C)c4=O)cc32)cc1 [Example 19]", "GLXMAW Soybean, Williams", "GLXMAW herbicidal rating", 1.5],
  ["COc1ccccc1-n1nnc2cc(F)c(-n3c(=O)cc(C(F)(F)F)n(C)c3=O)cc21 [Example 16]", "GLXMAW Soybean, Williams", "GLXMAW herbicidal rating", 9.0],
  ["COC(=O)C(C)Oc1ccc(C)cc1-n1nnc2cc(F)c(-n3c(=O)cc(C(F)(F)F)n(C)c3=O)cc21 (stereo not drawn) [Example 41]", "GLXMAW Soybean, Williams", "GLXMAW herbicidal rating", 0.0]
]}

Tell me GLXMAW herbicidal rating reported for CCc1ccc(-n2nnc3cc(F)c(-n4c(=O)cc(C(F)(F)F)n(C)c4=O)cc32)cc1COC [Example 28]
0.0

Given Cc1ccc(-n2nnc3cc(F)c(-n4c(=O)cc(C(F)(F)F)n(C)c4=O)cc32)cc1C [Example 23] , respond with its GLXMAW herbicidal rating.
0.0

Please report GLXMAW herbicidal rating for the following compound: COC(=O)COc1ccc(C)cc1-n1nnc2cc(F)c(-n3c(=O)cc(C(F)(F)F)n(C)c3=O)cc21 [Example 34]
1.0

Give the measured GLXMAW herbicidal rating for COc1ccc(-n2nnc3cc(F)c(-n4c(=O)cc(C(F)(F)F)n(C)c4=O)cc32)cc1 [Example 27]
1.0

Supply recorded GLXMAW herbicidal rating for COC(=O)COc1ccc(-n2nnc3cc(F)c(-n4c(=O)cc(C(F)(F)F)n(C)c4=O)cc32)c(C)c1 [Example 39] here.
0.0

Answer with the recorded GLXMAW herbicidal rating of COC(=O)COc1ccc(C)c(-n2nnc3cc(F)c(-n4c(=O)cc(C(F)(F)F)n(C)c4=O)cc32)c1 [Example 38] only.
0.0

Please look at this compound and report its GLXMAW herbicidal rating: COCc1ccccc1-n1nnc2cc(F)c(-n3c(=O)cc(C(F)(F)F)n(C)c3=O)cc21 [Example 26]
2.0

Name the recorded GLXMAW herbicidal rating of the item COc1ccc(C)c(-n2nnc3cc(F)c(-n4c(=O)cc(C(F)(F)F)n(C)c4=O)cc32)c1 [Example 22] in your answer.
0.0

Given C=CCOc1ccc(-n2nnc3cc(F)c(-n4c(=O)cc(C(F)(F)F)n(C)c4=O)cc32)c(C)c1 [Example 43] , respond with its GLXMAW herbicidal rating.
1.0
